Just for reference, the RNAGym collection of RNA variant scans (doi:10.1073/pnas.2313332121) is where these values come from.

The entries below come with measured polymerase ribozyme fitness (log ratio) values attached.
B1: TPR 5TU (parent)
chain: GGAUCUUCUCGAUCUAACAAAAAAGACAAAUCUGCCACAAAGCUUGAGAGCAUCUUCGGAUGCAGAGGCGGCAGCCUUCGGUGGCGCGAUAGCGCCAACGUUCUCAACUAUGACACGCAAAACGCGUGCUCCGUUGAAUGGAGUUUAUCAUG

# Variants of: B1
# assay procedure: polymerase ribozyme fitness, log enrichment relative to wild type (log ratio); higher = more active; in vitro selection for triplet polymerase activity
This sample holds only a part of the variants without activity.

>>> recorded_result("C5U C8U G58A A73G C114U A120G")
-3.02
>>> recorded_result("A49C G86A C129A C132U U148A G152U")
"≤ -4.2"
>>> recorded_result("A24C U61A C63G G81A G94A")
"≤ -4.2"
>>> recorded_result("A41C A49G U82A A91G")
"≤ -4.2"
>>> recorded_result("G92U U146A")
-0.393
>>> recorded_result("G50C A73G C87A")
"≤ -4.2"

Value of measured polymerase ribozyme fitness (log ratio) for the entry C5A U6G U13G U53A C116G G126U : -3.78

Value of measured polymerase ribozyme fitness (log ratio) for the entry C5U A21U : 1.4

Value of measured polymerase ribozyme fitness (log ratio) for the entry U31C U53G G67C C76G G83A : -3.62

Value of measured polymerase ribozyme fitness (log ratio) for the entry U4C C38U U55G C87A A106G : ≤ -4.2

Value of measured polymerase ribozyme fitness (log ratio) for the entry U6A A12C A16U A19U C75G G84C A97G A98U U102A G124U : ≤ -4.2

Value of measured polymerase ribozyme fitness (log ratio) for the entry A30G G71A C85G G141C : ≤ -4.2

Value of measured polymerase ribozyme fitness (log ratio) for the entry C32G A41U A91U A107G C125G U135C : ≤ -4.2

Value of measured polymerase ribozyme fitness (log ratio) for the entry G86C G136A : -1.38

Value of measured polymerase ribozyme fitness (log ratio) for the entry U9G U15C C87G A113G A142G : ≤ -4.2

Value of measured polymerase ribozyme fitness (log ratio) for the entry C38U C63A G94C : -0.694

Value of measured polymerase ribozyme fitness (log ratio) for the entry A20G C38U A47C A60G C93U A106G G128U : ≤ -4.2

Value of measured polymerase ribozyme fitness (log ratio) for the entry C54A G136A : -0.852

Value of measured polymerase ribozyme fitness (log ratio) for the entry A17G C51U U55G C79U G83U C95A C118G U145C : ≤ -4.2

Value of measured polymerase ribozyme fitness (log ratio) for the entry A64C G83C A89U U134A G141A : ≤ -4.2

Value of measured polymerase ribozyme fitness (log ratio) for the entry A26C A29U C36A G42A U61A G70A A73C : ≤ -4.2
